Origin of the recorded values: patent US11225474B2

# Test system: BaF3/BCR-ABL Y253F
# Experiment Notes: Toxicity to transduced BaF3 model tumor cell line
# Type: cell-based, murine
# Reported Conditions: Mus musculus
Measured Attribute: IC50 (nM)
Write the answer as a number in nM, unit excluded.

Reported IC50 ( CS(=O)(=O)O.Cc1ccc(C(=O)Nc2ccc(CN3CCN(C)CC3)c(C(F)(F)F)c2)cc1C#Cc1nnc2ccccn12 [methanesulfonic acid salt] ) = 25

* * *

# Experiment Notes: MTD at a single administration to dogs
# Reported Conditions: dog, in vivo, dose of the salt
Measured Attribute: MTD (mg/kg)
Give the value, in units of mg/kg, as a plain number.

CS(=O)(=O)O.Cc1ccc(C(=O)Nc2ccc(CN3CCN(C)CC3)c(C(F)(F)F)c2)cc1C#Cc1nnc2ccccn12 [methanesulfonic acid salt] yielded MTD of 45
